biological target: HER2 YVMA (Homo sapiens, UniProt P04626, INS775YVMA); construct: expressed in transfected cells; host or cells: BaF3 (murine pro-B); test: Activity for inhibiting HER2 (Table B), HER2 YVMA; type: cell-based; conditions: read-out: HER2 YVMA, potency code (IC50)
Sequence (P04626 with tags, fused parts or gaps INS775YVMA): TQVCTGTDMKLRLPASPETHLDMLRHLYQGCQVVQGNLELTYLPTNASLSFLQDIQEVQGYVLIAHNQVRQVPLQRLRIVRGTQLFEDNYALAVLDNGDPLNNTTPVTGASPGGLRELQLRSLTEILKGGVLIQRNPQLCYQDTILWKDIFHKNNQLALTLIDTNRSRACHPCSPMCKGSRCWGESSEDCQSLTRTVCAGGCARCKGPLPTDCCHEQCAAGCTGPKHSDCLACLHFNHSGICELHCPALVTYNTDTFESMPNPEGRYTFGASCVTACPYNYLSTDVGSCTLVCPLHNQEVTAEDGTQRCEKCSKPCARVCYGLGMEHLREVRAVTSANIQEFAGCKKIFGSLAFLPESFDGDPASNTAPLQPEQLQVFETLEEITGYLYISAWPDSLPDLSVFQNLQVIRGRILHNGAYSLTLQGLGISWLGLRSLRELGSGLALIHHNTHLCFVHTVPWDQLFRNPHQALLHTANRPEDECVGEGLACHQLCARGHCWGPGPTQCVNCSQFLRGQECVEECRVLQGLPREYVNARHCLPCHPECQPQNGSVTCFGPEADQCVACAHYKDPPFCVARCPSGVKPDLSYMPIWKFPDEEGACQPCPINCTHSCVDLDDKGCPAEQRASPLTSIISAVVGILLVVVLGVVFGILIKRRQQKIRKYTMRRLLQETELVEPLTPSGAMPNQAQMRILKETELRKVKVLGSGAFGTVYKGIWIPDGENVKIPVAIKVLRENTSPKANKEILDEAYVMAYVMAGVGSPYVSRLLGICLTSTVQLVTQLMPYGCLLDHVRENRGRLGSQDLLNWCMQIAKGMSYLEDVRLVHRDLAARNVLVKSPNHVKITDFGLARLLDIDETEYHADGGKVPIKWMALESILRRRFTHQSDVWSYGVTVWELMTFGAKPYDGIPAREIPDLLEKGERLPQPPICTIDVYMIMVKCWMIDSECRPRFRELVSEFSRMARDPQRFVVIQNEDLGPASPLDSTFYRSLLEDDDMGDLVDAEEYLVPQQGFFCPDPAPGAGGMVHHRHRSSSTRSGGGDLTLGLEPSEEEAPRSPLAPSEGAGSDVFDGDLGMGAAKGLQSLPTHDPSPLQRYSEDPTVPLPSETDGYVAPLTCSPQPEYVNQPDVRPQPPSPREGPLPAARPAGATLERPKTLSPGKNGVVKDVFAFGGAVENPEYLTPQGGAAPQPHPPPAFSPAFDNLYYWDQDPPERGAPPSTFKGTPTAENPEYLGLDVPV
Exercise: state measured IC50 for each of the compounds provided.

Input: What value of IC50 has been recorded for this entry: C=CC(=O)Nc1cc2c(Nc3ccc(OCc4ccccn4)c(Cl)c3)ncnc2cc1OCC1(CN(C)C)CC1 [compound 98]
Output: 200 to 300 nM

Input: Value lookup for IC50; key = C=CC(=O)Nc1cc2c(Nc3ccc(OCc4cccc(F)c4)c(Cl)c3)ncnc2cc1OCCCN1C[C@@H]2C[C@H]1CO2 [compound 159]
Output: 300 to 500 nM

Input: Quick one: IC50 of C=CC(=O)Nc1cc2c(Nc3ccc(OCc4ccccn4)c(Cl)c3)ncnc2cc1OCC1(N)CC1 [compound 55] ?
Output: 200 to 300 nM

Input: Name the recorded IC50 for C=CC(=O)Nc1cc2c(Nc3ccc(OCc4ccccn4)c(Cl)c3)ncnc2cc1N1CC2(CCN2C)C1 [compound 50] .
Output: > 1000 nM

* * *

target: EGFR WT (Homo sapiens); assay: Activity for inhibiting EGFR (Table A), EGFR WT; assay type: cell-based; settings: read-out: EGFR WT, potency code (IC50)
Sequence (P00533 25-1210 N540K): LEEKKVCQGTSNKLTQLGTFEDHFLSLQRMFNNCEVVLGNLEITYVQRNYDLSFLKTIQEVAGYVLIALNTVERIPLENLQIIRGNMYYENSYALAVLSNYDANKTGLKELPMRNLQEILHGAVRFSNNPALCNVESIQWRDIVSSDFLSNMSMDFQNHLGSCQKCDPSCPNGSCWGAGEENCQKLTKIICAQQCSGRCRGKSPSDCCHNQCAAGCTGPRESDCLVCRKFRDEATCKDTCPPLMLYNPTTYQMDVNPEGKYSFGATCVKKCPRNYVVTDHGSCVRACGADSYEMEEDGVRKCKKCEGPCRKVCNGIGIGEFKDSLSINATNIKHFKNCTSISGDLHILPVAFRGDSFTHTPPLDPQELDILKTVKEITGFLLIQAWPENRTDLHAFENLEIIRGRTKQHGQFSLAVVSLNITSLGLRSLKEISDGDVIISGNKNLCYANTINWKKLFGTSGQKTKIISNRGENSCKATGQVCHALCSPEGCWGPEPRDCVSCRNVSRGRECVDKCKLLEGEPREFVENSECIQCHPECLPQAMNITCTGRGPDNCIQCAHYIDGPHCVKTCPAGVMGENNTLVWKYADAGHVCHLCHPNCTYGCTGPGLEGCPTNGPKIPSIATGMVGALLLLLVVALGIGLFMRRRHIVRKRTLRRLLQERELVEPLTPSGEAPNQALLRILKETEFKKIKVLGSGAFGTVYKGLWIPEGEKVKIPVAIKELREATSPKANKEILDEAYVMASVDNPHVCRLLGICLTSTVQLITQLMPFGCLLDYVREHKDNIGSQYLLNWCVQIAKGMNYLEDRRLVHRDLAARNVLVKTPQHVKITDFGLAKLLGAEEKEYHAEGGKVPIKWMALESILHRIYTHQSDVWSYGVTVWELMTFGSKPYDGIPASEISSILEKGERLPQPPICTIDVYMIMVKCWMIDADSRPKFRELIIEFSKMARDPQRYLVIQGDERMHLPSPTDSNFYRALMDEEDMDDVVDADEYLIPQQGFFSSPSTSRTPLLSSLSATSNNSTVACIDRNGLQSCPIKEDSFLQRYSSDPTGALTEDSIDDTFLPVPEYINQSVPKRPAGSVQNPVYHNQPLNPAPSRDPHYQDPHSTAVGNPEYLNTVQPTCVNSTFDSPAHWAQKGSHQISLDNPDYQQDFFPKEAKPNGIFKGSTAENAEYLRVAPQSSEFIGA
observed property: IC50

Input: Fill in: IC50 of C=CC(=O)Nc1cc2c(Nc3ccc(OCc4ccccn4)c(Cl)c3)ncnc2cc1OCCN(C)C1CC1 [compound 53] is ___
Output: > 1000 nM

Input: Request the reported IC50 associated with C=CC(=O)Nc1cc2c(Nc3ccc(OCc4ccccn4)c(Cl)c3)ncnc2cc1C#CC1CC2(C1)CN(C)C2 [compound 124]
Output: 500 to 1000 nM

Input: So what does the record say about IC50 for C=CC(=O)Nc1cc2c(Nc3ccc(OCc4ccccn4)c(Cl)c3)ncnc2cc1OCCN1CCC(OC)CC1 [compound 114] ?
Output: 300 to 500 nM

Input: Could you share which IC50 value was measured for C=CC(=O)Nc1cc2c(Nc3ccc(OCc4cnccn4)c(Cl)c3)ncnc2cc1OCCN1CCN(C)CC1 [compound 180] ?
Output: 500 to 1000 nM

Input: Record request: IC50 value, item C=CC(=O)Nc1cc2c(Nc3ccc(OCc4ccccn4)c(Cl)c3)ncnc2cc1OCCN(C)C1CCOC1 (centres unmarked) [compound 41]
Output: 500 to 1000 nM

Input: # input compound: C=CC(=O)Nc1cc2c(Nc3ccc(Oc4ccc(C)nc4)c(C)c3)ncnc2cc1OC1CCN(C)C1 (centres unmarked) [compound 68] ; wanted: its IC50
Output: 500 to 1000 nM

Input: Find the recorded IC50 belonging to C=CC(=O)Nc1cc2c(Nc3ccc(OCc4ccccn4)c(Cl)c3)ncnc2cc1C#CC(C)(C)NC [compound 88] and report it.
Output: 500 to 1000 nM

Input: Reported IC50, compound CC#CC(=O)Nc1cc2c(Nc3ccc(Oc4ccccc4)cc3)ncnc2cc1C#C[C@@H]1[C@H]2CN(C)C[C@@H]12 [compound 108] : ____
Output: 500 to 1000 nM

Input: // lookup IC50 for C=CC(=O)Nc1cc2c(Nc3ccc(OCc4cnccn4)c(Cl)c3)ncnc2cc1OCCN1CC2CCC(C1)O2 [compound 175]
Output: > 1000 nM

Input: IC50 lookup needed for C=CC(=O)Nc1cc2c(Nc3ccc(OCc4ccccn4)c(Cl)c3)ncnc2cc1OCCC1(N(C)C)CC1 [compound 102] , thanks.
Output: 500 to 1000 nM

Input: Reported IC50 for C=CC(=O)Nc1cc2c(Nc3ccc(OCc4ccccn4)c(Cl)c3)ncnc2cc1OC1CCN(C)C1 (centres unmarked) [compound 16] : what is it?
Output: 200 to 300 nM

Input: Recorded IC50 of C=CC(=O)Nc1cc2c(Nc3ccc(OCc4ccccn4)c(Cl)c3)ncnc2cc1OCCN1CCS(=O)(=O)CC1 [compound 125] , please.
Output: 500 to 1000 nM

Input: Record request: IC50 value, item C=CC(=O)Nc1cc2c(Nc3ccc(OCc4ccccn4)c(Cl)c3)ncnc2cc1N1CC(N2CCOCC2)C1 [compound 44]
Output: 300 to 500 nM

Input: Recorded IC50 for C=CC(=O)Nc1cc2c(Nc3ccc(OCc4cccc(F)n4)c(Cl)c3)ncnc2cc1OCCN1CCOCC1 [compound 154] , please?
Output: 500 to 1000 nM

Input: Need IC50 of C=CC(=O)Nc1cc2c(Nc3ccc(OCc4ccccn4)c(Cl)c3)ncnc2cc1OCCn1ccnc1 [compound 10] , thanks.
Output: > 1000 nM

Input: Which IC50 is listed for C=CC(=O)Nc1cc2c(Nc3ccc(OCc4ccccn4)c(Cl)c3)ncnc2cc1C#CC1[C@H]2CNC[C@@H]12 (some centres unmarked) [compound 105] ?
Output: 500 to 1000 nM

Input: Entry C=CC(=O)Nc1cc2c(Nc3ccc(OCc4ccccn4)cn3)ncnc2cc1OC1CCN(C)C1 (centres unmarked) [compound 61] has what IC50?
Output: > 1000 nM

Input: IC50 for C=CC(=O)Nc1cc2c(Nc3ccc(OCc4ccccn4)c(Cl)c3)ncnc2cc1OCCN1CCC1 [compound 33] ?
Output: 300 to 500 nM

Input: Give its IC50 value. Item: CC#CC(=O)Nc1cc2c(Nc3ccc(OCc4ccccn4)c(Cl)c3)ncnc2cc1N(C)CCN1CCOCC1 [compound 4]
Output: 200 to 300 nM

Input: Recorded IC50 of C=CC(=O)Nc1cc2c(Nc3ccc(OCc4ccccn4)c(Cl)c3)ncnc2cc1OCCN1CC2(CCN2C)C1 [compound 115] , please.
Output: 200 to 300 nM

Input: What measured IC50 goes with C=CC(=O)Nc1cc2c(Nc3ccc(OCc4ccccn4)c(Cl)c3)ncnc2cc1OC[C@H]1CCN(C)C1 [compound 101] ?
Output: 100 to 200 nM

Input: # input compound: C=CC(=O)Nc1cc2c(Nc3ccc(OCc4ccccn4)c(Cl)c3)ncnc2cc1N1CC2(CCN2C)C1 [compound 50] ; wanted: its IC50
Output: > 1000 nM

Input: Look up IC50: C=CC(=O)Nc1cc2c(Nc3ccc(OCc4ccccn4)c(Cl)c3)ncnc2cc1OCCN1CCN(C)CC1 [compound 40]
Output: 200 to 300 nM

Input: Look up IC50 for this compound: C=CC(=O)Nc1cc2c(Nc3ccc(OCc4ccccn4)c(Cl)c3)ncnc2cc1OCC1CN(C)C1 [compound 123]
Output: 200 to 300 nM

Input: Requested field: IC50. Item: C=CC(=O)Nc1cc2c(Nc3ccc(OCc4ccccn4)cc3F)ncnc2cc1OCCN1CCOCC1 [compound 56]
Output: 300 to 500 nM

Input: Quick one: IC50 for C=CC(=O)Nc1cc2c(Nc3ccc(OCc4cccc(F)c4)c(Cl)c3)ncnc2cc1OCCCN1CCOCC1 [compound 3] ?
Output: 300 to 500 nM

Input: I am curious: what IC50 value has been reported for C=CC(=O)Nc1cc2c(Nc3ccc(OCc4cccc(F)c4)c(Cl)c3)ncnc2cc1OCCCN1C[C@@H]2C[C@H]1CO2 [compound 159] ?
Output: 300 to 500 nM

Input: Which IC50 reading was recorded for the compound C=CC(=O)Nc1cc2c(Nc3ccc(OCc4ccncn4)c(Cl)c3)ncnc2cc1OCCCN1CCOCC1 [compound 163] ?
Output: > 1000 nM

Input: // returns reported IC50 for input C=CC(=O)Nc1cc2c(Nc3ccc(OCc4ccccn4)c(Cl)c3)ncnc2cc1OC[C@H]1C[C@@H]2CN(C)C[C@@H]2C1 [compound 103]
Output: 200 to 300 nM

* * *

Exercise: for every item that follows, state its recorded pIC50.
biological target: HER2 S310F (Homo sapiens, UniProt P04626, S310F); construct: expressed in transfected cells; host or cells: BaF3 (murine pro-B); test: Activity for inhibiting HER2 (Table B), HER2 S310F; format: cell-based; conditions: read-out: HER2 S310F, potency code (IC50)
Sequence (P04626 23-1255 S310F): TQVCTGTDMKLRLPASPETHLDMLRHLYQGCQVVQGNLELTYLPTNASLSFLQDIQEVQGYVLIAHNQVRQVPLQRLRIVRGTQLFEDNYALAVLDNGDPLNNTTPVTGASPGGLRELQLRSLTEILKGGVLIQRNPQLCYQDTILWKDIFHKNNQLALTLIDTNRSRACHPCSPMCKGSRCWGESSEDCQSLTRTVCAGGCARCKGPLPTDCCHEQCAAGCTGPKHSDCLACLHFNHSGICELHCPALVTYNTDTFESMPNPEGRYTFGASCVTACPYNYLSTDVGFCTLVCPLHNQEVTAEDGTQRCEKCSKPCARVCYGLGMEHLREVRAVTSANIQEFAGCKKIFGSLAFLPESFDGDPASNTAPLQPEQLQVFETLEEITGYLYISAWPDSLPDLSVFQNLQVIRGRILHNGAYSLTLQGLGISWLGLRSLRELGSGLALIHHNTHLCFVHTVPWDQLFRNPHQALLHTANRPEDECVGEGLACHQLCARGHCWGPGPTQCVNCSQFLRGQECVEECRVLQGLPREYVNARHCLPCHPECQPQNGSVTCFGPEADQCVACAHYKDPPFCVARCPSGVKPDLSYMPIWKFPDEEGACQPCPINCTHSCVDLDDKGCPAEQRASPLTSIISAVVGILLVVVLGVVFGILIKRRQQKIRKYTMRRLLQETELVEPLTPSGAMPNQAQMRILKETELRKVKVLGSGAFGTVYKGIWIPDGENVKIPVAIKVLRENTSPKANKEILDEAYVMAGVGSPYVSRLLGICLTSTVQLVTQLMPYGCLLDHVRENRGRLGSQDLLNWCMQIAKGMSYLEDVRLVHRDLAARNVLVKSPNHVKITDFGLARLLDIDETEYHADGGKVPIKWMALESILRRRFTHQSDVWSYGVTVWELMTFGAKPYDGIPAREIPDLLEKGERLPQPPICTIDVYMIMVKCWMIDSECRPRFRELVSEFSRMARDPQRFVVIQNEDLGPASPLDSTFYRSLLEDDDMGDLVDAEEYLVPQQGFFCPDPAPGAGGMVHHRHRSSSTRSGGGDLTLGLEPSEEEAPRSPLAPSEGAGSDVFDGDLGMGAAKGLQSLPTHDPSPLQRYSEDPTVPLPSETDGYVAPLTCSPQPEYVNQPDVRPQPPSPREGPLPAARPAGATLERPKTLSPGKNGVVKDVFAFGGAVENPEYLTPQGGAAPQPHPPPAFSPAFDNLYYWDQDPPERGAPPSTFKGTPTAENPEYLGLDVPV
pIC50: −log10 of the molar value.

Input: Report pIC50 for C=CC(=O)Nc1cc2c(Nc3ccc(OCc4ccccn4)c(Cl)c3)ncnc2cc1N1CC2CN(C)CC2C1 (stereo not shown) please.
Output: 7.30 to 7.52

Input: Look at this compound and give its reported pIC50. C=CC(=O)Nc1cc2c(Nc3ccc(OCc4ccccn4)c(Cl)c3)ncnc2cc1N1CCN(C)CC1
Output: 7.00 to 7.30

Input: Suppose we examine the compound C=CC(=O)Nc1cc2c(Nc3ccc(OCc4cccc(F)c4)c(Cl)c3)ncnc2cc1OCCCN1C[C@H]2C[C@@H]1CO2 ; what pIC50 value has been reported?
Output: 6.70 to 7.00

Input: # lookup: pIC50 of C=CC(=O)Nc1cc2c(Nc3ccc(OCc4ccccn4)c(Cl)c3)ncnc2cc1OC[C@H]1COCCN1
Output: 7.52 to 7.70

Input: So what does the record say about pIC50 for C=CC(=O)Nc1cc2c(Nc3ccc(OCc4ccccn4)c(Cl)c3)ncnc2cc1C#CC(C)(C)N(C)C ?
Output: 7.70 to 8.00

Input: I have this compound here, C=CC(=O)Nc1cc2c(Nc3ccc(OCc4cccc(F)c4)c(Cl)c3)ncnc2cc1OCCN1CC2CCC(C1)O2 , and I need its recorded pIC50.
Output: 7.30 to 7.52

Input: Name the recorded pIC50 for C=CC(=O)Nc1cc2c(Nc3cnc(NCc4ccccn4)c(Cl)c3)ncnc2cc1OCCN1CCOCC1 .
Output: 6.52 to 6.70
